Target: T1, interleukin-23 receptor (IL-23R), Q5VWK5
T1 chain: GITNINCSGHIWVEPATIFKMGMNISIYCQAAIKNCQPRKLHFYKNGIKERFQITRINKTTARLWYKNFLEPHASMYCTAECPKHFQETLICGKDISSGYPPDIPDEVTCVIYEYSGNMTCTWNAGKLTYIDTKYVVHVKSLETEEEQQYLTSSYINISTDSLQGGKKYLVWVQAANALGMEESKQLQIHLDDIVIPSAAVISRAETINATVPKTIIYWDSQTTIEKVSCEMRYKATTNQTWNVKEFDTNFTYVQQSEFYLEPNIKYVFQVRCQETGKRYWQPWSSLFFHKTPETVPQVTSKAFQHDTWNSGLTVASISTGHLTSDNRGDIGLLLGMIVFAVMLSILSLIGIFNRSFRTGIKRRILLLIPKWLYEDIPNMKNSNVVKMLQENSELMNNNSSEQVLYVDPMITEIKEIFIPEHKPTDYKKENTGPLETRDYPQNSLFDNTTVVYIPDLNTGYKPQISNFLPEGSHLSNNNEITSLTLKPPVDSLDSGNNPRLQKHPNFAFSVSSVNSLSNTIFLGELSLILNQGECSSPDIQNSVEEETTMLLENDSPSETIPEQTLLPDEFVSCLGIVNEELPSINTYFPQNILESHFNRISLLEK
Experiment: cell-based or functional assay
Starred links: 1 amine or outer side, 2 acyl side, 3 side chain; linkers in the order of their positions; H or OH if unused. Positions of bridges follow the written chain, without caps; N, C: chain ends. Non-standard residues stand in square brackets, D forms with d. No end group written: not given here. X1 = 3‑(7-(3-acetamidophenyl)-1H-indol-3-yl)‑2‑aminopropanoic acid, CC(=O)Nc1cccc(-c2cccc3c(CC(N[*:1])C(=O)[*:2])c[nH]c23)c1; Trp(7-Me) = Cc1cccc2c(C[C@H](N)C(=O)O)c[nH]c12; 3Pal = N[C@@H](Cc1cccnc1)C(=O)O; Pen = CC(C)(S)[C@H](N)C(=O)O; lipid = not defined here; Thp = NC1(C(=O)O)CCOCC1; Sar = CNCC(=O)O
Measured Property: PBMC pSTAT3 IC50

>>> measured_value("[Pen]ET[Trp(7-Me)]K(Ac)[Pen][2‑amino‑3‑(4-(2-aminoethoxy)phenyl)propanoic acid][2‑amino‑3‑(6-hydroxynaphthalen-2-yl)propanoic acid][Thp]EN[3Pal][Sar] (not fully specified (bridges); ends and bridges not checked) [SEQ ID NO: 372]")
"< 10 pM"

stdin: Query (binder): R[Pen]NT[X1]K(Ac)[Pen][2‑amino‑3‑(4-(2-aminoethoxy)phenyl)propanoic acid][2‑amino‑3‑(6-hydroxynaphthalen-2-yl)propanoic acid][Thp]EN[3Pal][Sar] (disulfide 2-7 (inferred); ends not checked) [SEQ ID NO: 151] ; field requested: PBMC pSTAT3 IC50
stdout: < 1 nM

stdin: Also check R[Pen]NT[Trp(7-Me)]K(Ac)[Pen][2‑amino‑3‑(4-(2-aminoethoxy)phenyl)propanoic acid][2‑amino‑3‑(6-hydroxynaphthalen-2-yl)propanoic acid][Thp]K(Ac)N[3Pal][Sar]K(lipid) (disulfide 2-7 (inferred); ends not checked; also: Lys15 lipidated, lipid not given here) [SEQ ID NO: 222]
stdout: > 1 nM
